- Test system: Rhabditis sp.
- Method description: Nematicidal activity against juvenile stage of Rhabditis sp. assessed as inhibition of mobility after 168 hr
- Type: functional
Reported property: MIC50

The examples below pair each entry with its known result.
| Compound | Target entity | Reported property | Meas value |
| --- | --- | --- | --- |
| C[C@H]1C(=O)O[C@@H]2CCN3CC=C(COC(=O)[C@](C)(O)[C@]1(C)O)[C@H]23 | Rhabditis sp. | MIC50 | 150 µg/mL |
| CO[C@H](C)[C@](O)(C(=O)OCC1=CCN2CC[C@H](O)[C@@H]12)C(C)C | Rhabditis sp. | MIC50 | 100 µg/mL |

Next item in the queue.
Exam item: Requested field: MIC50. Item: C[C@H]1C(=O)O[C@@H]2CC[N+]3([O-])CC=C(COC(=O)[C@](C)(O)[C@]1(C)O)[C@H]23 (some centres undefined) [MONOCROTALINE N-OXIDE]
Marked response: 21200 µg/mL

The reported measurements were obtained from ChEMBL document CHEMBL3044783.
